target desc: T1, FZD6 cysteine-rich domain (CRD), MYC-tagged and GPI-anchored on CHO cells (human, UniProt O60353 20-146, GPI anchor)
T1 construct: also called FZD6 CRD; CHO-myc-FZDGPI; not shown: MYC tag and GPI anchor signal
T1 sequence: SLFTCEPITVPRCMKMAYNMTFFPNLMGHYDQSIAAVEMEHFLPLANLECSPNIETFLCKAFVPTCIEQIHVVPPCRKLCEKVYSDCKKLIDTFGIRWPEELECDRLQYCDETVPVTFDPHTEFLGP
protocol text: immunofluorescence, CHO-CRD cells
measurement name: binding result

Fab-2900 (Fab, V domains shown, Fab; also called Fv-2900) VH: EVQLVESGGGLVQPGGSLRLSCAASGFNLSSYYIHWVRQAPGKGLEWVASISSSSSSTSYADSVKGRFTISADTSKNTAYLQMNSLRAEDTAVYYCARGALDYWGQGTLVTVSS VL: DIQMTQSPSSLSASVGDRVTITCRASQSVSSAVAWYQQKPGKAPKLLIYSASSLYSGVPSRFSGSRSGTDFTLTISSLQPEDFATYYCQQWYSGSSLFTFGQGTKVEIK = no binding
Fab-2899 (Fab, V domains shown, Fab; also called Fv-2899) VH: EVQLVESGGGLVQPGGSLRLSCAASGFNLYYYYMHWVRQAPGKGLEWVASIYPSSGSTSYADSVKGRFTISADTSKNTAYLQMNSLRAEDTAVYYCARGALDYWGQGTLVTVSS VL: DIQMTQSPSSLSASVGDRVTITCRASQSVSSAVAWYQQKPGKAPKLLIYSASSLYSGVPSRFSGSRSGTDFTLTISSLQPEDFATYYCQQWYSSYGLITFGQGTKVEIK = no binding
Fab-2909 (Fab, V domains shown, Fab; also called Fv-2909) VH: EVQLVESGGGLVQPGGSLRLSCAASGFNISSSYMHWVRQAPGKGLEWVASISSSSGYTSYADSVKGRFTISADTSKNTAYLQMNSLRAEDTAVYYCARTVRGSKKPYFSGWAMDYWGQGTLVTVSS VL: DIQMTQSPSSLSASVGDRVTITCRASQSVSSAVAWYQQKPGKAPKLLIYSASSLYSGVPSRFSGSRSGTDFTLTISSLQPEDFATYYCQQSWSYHYLITFGQGTKVEIK = no binding
